Data origin: paper PMC9298070

- measurement notes: Plasma pharmacokinetics in phase 1, open-label, fixed-sequence, 2-period drug interaction trial (MK-8591-005)
- Assay type: in vivo, human
- assay conditions: human, plasma, oral, plasma, steady state; 50 mg dolutegravir + 300 mg TDF once daily days 1-7, period 2, without islatravir; N = 12; read-out: AUC0‐24, GM (95%CI)
readout kind: AUC

**Query** Give reported AUC value for `C[C@H](Cn1cnc2c(N)ncnc21)OCP(=O)(O)O`
**Result** 2220 ng·h/mL

###

- measurement notes: Plasma pharmacokinetics in phase 1, open-label, fixed-sequence, 2-period drug interaction trial (MK-8591-005)
- Type: in vivo, human
- assay conditions: human, plasma, oral, plasma islatravir; single 20 mg islatravir on day 8 with 50 mg dolutegravir + 300 mg TDF once daily days 1-11, period 2; N = 12; read-out: AUC0‐inf, GM (95%CI)
readout kind: AUC (µM·h)
Give just the numeric value; µM·h need not be written.

**Query** Give reported AUC value for `C#C[C@]1(CO)O[C@@H](n2cnc3c(N)nc(F)nc32)C[C@@H]1O`
**Result** 2.51

###

- measurement notes: Plasma pharmacokinetics in phase 1, open-label, fixed-sequence, 2-period drug interaction trial (MK-8591-005)
- Assay type: in vivo, human
- assay conditions: human, plasma, oral, plasma; 50 mg dolutegravir + 300 mg TDF once daily with single 20 mg islatravir on day 8, period 2; N = 12; read-out: AUC0‐24, GM (95%CI)
readout kind: AUC

**Query** Give reported AUC value for C[C@H](Cn1cnc2c(N)ncnc21)OCP(=O)(O)O [Tenofovir]
**Result** 2.33 µg·h/mL

###

- measurement notes: Plasma pharmacokinetics in phase 1, open-label, fixed-sequence, 2-period drug interaction trial (MK-8591-005)
- Assay type: in vivo, human
- assay conditions: human, plasma, po, 20 mg, plasma islatravir; islatravir alone, single oral 20 mg, day 1 period 1; N = 12; read-out: tmax, median (min‐max)
readout kind: Tmax (min)
Give just the numeric value; min need not be written.

**Query** Give reported Tmax value for C#C[C@]1(CO)O[C@@H](n2cnc3c(N)nc(F)nc32)C[C@@H]1O [Islatravir, 4′‐Ethynyl‐2‐fluoro‐2′‐deoxyadenosine]
**Result** 45

###

- measurement notes: Plasma pharmacokinetics in phase 1, open-label, fixed-sequence, 2-period drug interaction trial (MK-8591-005)
- Assay type: in vivo, human
- assay conditions: human, plasma, oral, plasma; 50 mg dolutegravir + 300 mg TDF once daily with single 20 mg islatravir on day 8, period 2; N = 12; read-out: Cmax, AM (SD)
readout kind: Cmax (ng/mL)
Give just the numeric value; ng/mL need not be written.

**Query** Give reported Cmax value for `C[C@H](Cn1cnc2c(N)ncnc21)OCP(=O)(O)O`
**Result** 343

###

- measurement notes: Plasma pharmacokinetics in phase 1, open-label, fixed-sequence, 2-period drug interaction trial (MK-8591-005)
- Assay type: in vivo, human
- assay conditions: human, plasma, oral, plasma, steady state; 50 mg dolutegravir + 300 mg TDF once daily days 1-7, period 2, without islatravir; N = 12; read-out: AUC0‐24, AM (SD)
- Protocol: This was a phase 1, open‐label, fixed‐sequence, 2‐period trial in adults without HIV (protocol MK‐8591‐005). In period 1, participants received a single oral dose of 20 mg islatravir. […] Plasma concentrations of islatravir, dolutegravir, and tenofovir were determined by inVentiv Health Clinique (Québec City, Québec, Canada) using validated high‐performance liquid chromatography coupled to tandem mass spectrometry methods. […]
readout kind: AUC (ng·h/mL)
Give just the numeric value; ng·h/mL need not be written.

**Query** Give reported AUC value for `C[C@H](Cn1cnc2c(N)ncnc21)OCP(=O)(O)O`
**Result** 2250
